Known protein stability index of a selection of sequences
Assay notes: protein stability index of a GFP-peptide fusion (GPS, HEK-293T) (PSI 1-6); higher = more stable;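 also: 24-mer peptide tiles fused after GFP, lentivirally expressed, FACS-sorted into six equal bins by GFP/DsRed ratio, decoded by Illumina sequencing, PSI is the read-weighted mean bin number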
Condition context: treatment: DMSO; c terminus: a fixed tail appended
Property: protein stability index

>  <Sequence code>
CEALEDSDGRQDSPAGELPKTVQQ [MATN2]

>  <Observed>
5.55

$$$$
>  <Sequence code>
GDMNHEWIGNEWLPSLGLPQYRSY [PPFIA4]

>  <Observed>
2.41

$$$$
>  <Sequence code>
LVCTADGDIHLSPEEPAASTDPNI [TAF7L]

>  <Observed>
4.85

$$$$
>  <Sequence code>
LFNILAKFNGITEKEYKTYKENFL [USP39]

>  <Observed>
2.16

$$$$
>  <Sequence code>
MSFVAGVIRRLDETVVNRIAAGEV [MLH1]

>  <Observed>
2.85

$$$$
>  <Sequence code>
QLREALKILAERVLILETMIGLYE [EMID1]

>  <Observed>
2.31

$$$$
>  <Sequence code>
PVGEPVTNVRLQPAATWNLEEKRL [FCHO1]

>  <Observed>
4.52

$$$$
>  <Sequence code>
SASHRPCVNGDVDKPSEPASEEGS [SMG5]

>  <Observed>
5.49

$$$$
>  <Sequence code>
KLEESKQLLKNNEKLITWLNKELN [SASS6]

>  <Observed>
2.24

$$$$
>  <Sequence code>
DIKAAFAPFGRISDARVVKDMATG [TIA1]

>  <Observed>
3.31

$$$$
>  <Sequence code>
GGLVVSAASLAGCLGALCENTCLL [TSPAN10]

>  <Observed>
2.79

$$$$
>  <Sequence code>
DLSSLRAKYPHDVVNHLSCDEARN [SPACA9]

>  <Observed>
4.47

$$$$
>  <Sequence code>
SEVKEELAGQKDELQLSDLLKQGY [PKD2L1]

>  <Observed>
4.81

$$$$
>  <Sequence code>
WERKEGGGGISCVLQDGCVFEKAG [CPOX]

>  <Observed>
3.82

$$$$
>  <Sequence code>
SPISSISPGLHSFTDHQRLMKRRK [KCNK9]

>  <Observed>
4.7

$$$$
>  <Sequence code>
EAFAASAVGSGERRGGGPVFPAPV [ZBTB22]

>  <Observed>
3.93

$$$$
>  <Sequence code>
LQEPGVFSPTPPQQFQPAGTDQVC [FCHSD1]

>  <Observed>
4.25

$$$$
>  <Sequence code>
FLPVDTSNNNGRIKQLRSGGTPIR [PTPRD]

>  <Observed>
3.33

$$$$
>  <Sequence code>
PDHQVPYGHDYPRAAYQQVIQPAL [TRAF3IP2]

>  <Observed>
3.48

$$$$
>  <Sequence code>
GRHYWEVEVGDKTHWAVGVCRDSV [TRIM39]

>  <Observed>
2.48

$$$$
>  <Sequence code>
DPKRRMTIAQSLEHSWIKAIRRRN [DAPK3]

>  <Observed>
3.67

$$$$
>  <Sequence code>
VRELVDKATNVVMNYSEIESKVRE [CLINT1]

>  <Observed>
4

$$$$

###

Assay notes: protein stability index of a GFP-peptide fusion (GPS, HEK-293T) (PSI 1-6); higher = more stable
Condition context: treatment: DMSO; c terminus: a fixed tail appended

>  <Sequence code>
SAAGHLKVVQSLLNHGASVNNTTL [FEM1C]

>  <protein stability index>
3.06

$$$$
>  <Sequence code>
RKVKSTITLDGGVLVHVQKWDGKS [FABP4]

>  <protein stability index>
3

$$$$
>  <Sequence code>
NFEKLRLSLQDQVDTLTFQSQSLR [MTUS2]

>  <protein stability index>
3.01

$$$$
>  <Sequence code>
SSLDLSYYPTSSSTSFMSSSSSSS [EMD]

>  <protein stability index>
3.99

$$$$
>  <Sequence code>
QRRRRVENAGGSPSPEPAGRRAAL [RSAD1]

>  <protein stability index>
5.11

$$$$
>  <Sequence code>
WRNLGVQQSQGWVHYMIHEPEPHI [CKS1B]

>  <protein stability index>
2.24

$$$$
>  <Sequence code>
LVQLEDEITTLRQVLSAKERHLVE [TPD52L1]

>  <protein stability index>
2.85

$$$$
>  <Sequence code>
KYDYLMTLHGVVNESTVCLMSYER [TENT5D]

>  <protein stability index>
2.38

$$$$
>  <Sequence code>
ADRCSPKEDQAWDGASQDCPPLPA [FBXO34]

>  <protein stability index>
5.27

$$$$
>  <Sequence code>
PGSTRPHRSACSSAAVRGHPRALP [HAGHL]

>  <protein stability index>
3.19

$$$$
>  <Sequence code>
SYNITVTATDGGSPPLSTEAHFML [PCDHGA10]

>  <protein stability index>
2.03

$$$$
>  <Sequence code>
ASQPVKKQQENATSCSLELIGDLI [WDR41]

>  <protein stability index>
3.47

$$$$
>  <Sequence code>
APPLQAETPGSAVDYPLHDLVLHT [TNXB]

>  <protein stability index>
4.16

$$$$
>  <Sequence code>
EMRIPALNAYMKSLLSLPVWVLMD [NCF4]

>  <protein stability index>
3.26

$$$$
>  <Sequence code>
REVMESAVGNSSGSGQNEESPRKR [FBXO28]

>  <protein stability index>
5.51

$$$$
>  <Sequence code>
TLSKPSPMPVSQECFETLRGDERI [CHGA]

>  <protein stability index>
4.81

$$$$
>  <Sequence code>
RPVLLSKIEGHQDAVTAALLIPKE [WDFY1]

>  <protein stability index>
3.87

$$$$
>  <Sequence code>
FLMGRVLYFHHYFPAMLFSSMLTG [POMT2]

>  <protein stability index>
3.35

$$$$
>  <Sequence code>
YPSVILRDPLQTDTLQNDYFAIKQ [ETS1]

>  <protein stability index>
3.1

$$$$
>  <Sequence code>
CPPGGIHQVTVNESLLAPLNVELD [KRT71]

>  <protein stability index>
4.63

$$$$
>  <Sequence code>
KLPPYLIFCIKRFTKNNFFVEKNP [USP39]

>  <protein stability index>
3.02

$$$$
>  <Sequence code>
VTPKKSPPPKTNLTPGQSDSAKRE [FAN1]

>  <protein stability index>
5.22

$$$$
>  <Sequence code>
TPSEEHMKNKNNVTEFILLGLTQN [OR4A15]

>  <protein stability index>
3.26

$$$$
>  <Sequence code>
AISPGRFPEALDELPLPPFLQPLD [ANKRD9]

>  <protein stability index>
3.91

$$$$
>  <Sequence code>
DDFDEDELMAELEELEQEELNKKM [CHMP4C]

>  <protein stability index>
5.16

$$$$
